- Test system: HepG2
- assay details: cytotoxicity call (relative viability < 0.9)
- test conditions: 10 µM
Out of some 39,000 compounds screened, about 3,300 (8.5%) were called active. Only a selection was taken, and actives are over-represented in it overall.
Pick one and only one: active, inactive

Worked examples, 5 molecules total:
{"smiles data": "COc1ccc([C@@H](NC(=O)C2CCN(Cc3ccc(Oc4ccccc4)cc3)CC2)c2ccccc2C)cn1", "class label": "inactive"}
{"smiles data": "O=C(N[C@H](c1ccc(F)cc1)c1ccc2ccccc2n1)C1CCN(Cc2ccc(Oc3ccccc3)cc2)CC1", "class label": "active"}
{"smiles data": "Cc1ccc(S(=O)(=O)Nc2ccc3c(c2)C(=O)N([C@H](C)CO)C[C@@H](C)[C@H](CN(C)C(=O)Nc2ccccc2)OCCCC[C@H](C)O3)cc1", "class label": "inactive"}
{"smiles data": "Nn1c(CO)nc2ccccc21", "class label": "inactive"}
{"smiles data": "O=C(N[C@H](c1ccc(F)cc1)c1ccc2ccccc2n1)C1CCN(Cc2ccc3ccccc3n2)CC1", "class label": "inactive"}

Problem: Hi team, can someone confirm the assay call for COc1cc(CN2CCC(C(=O)N[C@@H](c3ccc(F)cc3)c3ccc4ccccc4n3)CC2)cc(OC)c1 ?
Solution: active

Problem: Further, for OC1(c2ccc(Cl)c(C(F)(F)F)c2)CCN(CCCC(c2ccc(F)cc2)c2ccc(F)cc2)CC1 ?
Solution: active

Problem: Further, for COc1ccc(S(=O)(=O)Nc2cccc3c2O[C@H](CN(C)S(C)(=O)=O)[C@H](C)CN([C@H](C)CO)C3=O)cc1 ?
Solution: inactive
